# conditions: in ethylbenzene, 308.15 K
readout-kind: solubility (mole fraction)
Provide a numeric answer; units are not to be included.

Documented solubility (mole fraction) of `CC1=NN(c2ccc(C)cc2)C(=O)C1` : 0.0327

====

# conditions: in cyclohexane, 283.15 K
readout-kind: solubility (mole fraction)
Provide a numeric answer; units are not to be included.

Documented solubility (mole fraction) of `CC1=NN(c2ccc(C)cc2)C(=O)C1` : 0.000488

====

# conditions: in n-butanol, 278.15 K
readout-kind: solubility (mole fraction)
Provide a numeric answer; units are not to be included.

Documented solubility (mole fraction) of `CC1=NN(c2ccc(C)cc2)C(=O)C1` : 0.0188
